Biological target: T1, 4H3591-AA
T1 chain: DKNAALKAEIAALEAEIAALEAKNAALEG
Experiment: two-hybrid library CCmax;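 note: natural log of median RNA to DNA barcode read ratio; higher means stronger binding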
Details: mean of both orientations
REPORTED_ENDPOINT: interaction score
API doc: respond with a numeric literal and nothing else, no unit.

Sample DENAALEAEIAALKAKNAALKAEIAALKG [4H1146-AA] — what was its interaction score?
-0.991

Sample DKIAALKAENAALEAKNAALEAKIAALKG [4H2742-AA] — what was its interaction score?
-0.99

Sample DKNAALEAKIAALKAKNAALEAKIAALKG [4H3446-AA] — what was its interaction score?
-0.816

Sample DKIAALEAENAALKAEIAALEAKNAALKG [4H2248-AA] — what was its interaction score?
-1.39

Sample DENAALEAKIAALKAKIAALKAKNAALEG [4H1391-AA] — what was its interaction score?
2.15

Sample DKNAALEAEIAALEAENAALKAKIAALKG [4H3102-AA] — what was its interaction score?
-1.16

Sample DKIAALKAENAALEAENAALKAEIAALEG [4H2713-AA] — what was its interaction score?
-1.25
